Just for reference, ChEMBL document CHEMBL5058577 is where these values come from.

Tested on: Fibroblast
Assay: Multiplex assay against human fibroblast
Format: toxicity, cell-based
Conditions: 24 h, 10 µM, compound concentration 10 uM, replicate 2
measured-parameter: Population Healthy Nuclei (%)

Query :: API: value(readout=Population Healthy Nuclei (%), system=Fibroblast) for record "Cc1cc(O)c(-c2ccc([C@@H](C)CN(C)C)cc2)c2c1[nH]c(=O)c1sccc12"
Result :: 51%

Query :: Could you do the same for "COC(c1ccccc1)(c1ccccc1)[C@H](Oc1nc(C)cc(C)n1)C(=O)O" , please?
Result :: 27%

Query :: Could you do the same for "Cc1cc(NC(=O)NCCN2CCC(O)(Cc3ccccc3)CC2)c2ccccc2n1" , please?
Result :: 47%

Query :: Could you do the same for CN1CCN2c3ccccc3Cc3ccccc3C2C1.Cl (configuration not stated) [MIANSERIN HYDROCHLORIDE] , please?
Result :: 47%

Query :: Could you do the same for "CC(C)(C)c1ccc(CSc2cnn(C(C)(C)C)c(=O)c2Cl)cc1" , please?
Result :: 48%

Query :: Could you do the same for "CN1CCC(C(=O)c2cccc(NC(=O)c3c(F)cc(F)cc3F)n2)CC1" , please?
Result :: 50%

Query :: Could you do the same for CN1C[C@H](C(=O)N[C@]2(C)O[C@@]3(O)[C@@H]4CCCN4C(=O)[C@H](Cc4ccccc4)N3C2=O)C[C@@H]2c3cccc4[nH]cc(c34)C[C@H]21.CS(=O)(=O)O [DIHYDROERGOTAMINE MESYLATE] , please?
Result :: 43%
